Measured values drawn from PubChem BioAssay for this set.

test: S. cerevisiae RM11-1a growth modifiers, primary screen, strain RM11-1a, OD600, basal, 24 h (AID 1177); settings: OD600, 24 h, higher = more signal, called active from +8 up or from −8 down;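 also: cultures grown under basal conditions with no added stressor; test concentration not given here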
Bucketed by reported z-score, buckets being 0 = under -0.07, 1 = from -0.07 up to 1, 2 = 1 and over

# Compound, Cat
data = [
    ("CCN(CC)c1ccc(N2CC=CC34O[C@@H]5C=CCOC(=O)[C@@H]5[C@H]3C(=O)N(CCO)[C@@H]4C2=O)cc1 (stereo not given in full)", 1),
    ("CC(C)(C)OC(=O)CC[C@]1(C(N)=O)N=C(c2ccc(OCCCO)cc2)O[C@H]1c1ccccc1CN=[N+]=[N-]", 2),
    ("C=CCC(OC(C)=O)[C@@H]1[C@@H](N(Cc2ccc(-c3cccc(C(F)(F)F)c3)o2)C(=O)c2cccc3ccccc23)c2cc(OCCCO)ccc2N1C(=O)c1ccc2ccccc2n1 (stereo not given in full)", 1),
    ("COCCOC(=O)N1C(=O)[C@@]2(c3cc(C#CCNC(N)=O)ccc31)[C@H](C(=O)NC[C@H](O)c1ccccc1)[C@H]1C(=O)O[C@H](c3ccccc3)[C@H](c3ccccc3)N1[C@@H]2c1ccc(OCCO)cc1", 2),
    ("COCCOC(=O)N1C(=O)[C@@]2(c3cc(C#CCCO)ccc31)[C@H](c1ccc(O)cc1)N1[C@H](c3ccccc3)[C@H](c3ccccc3)OC(=O)[C@H]1[C@@H]2C(=O)N1CCc2cc(OC)c(OC)cc2C1", 2),
    ("C=CCNC(=O)[C@H]1[C@@H]2C(=O)O[C@@H](c3ccccc3)[C@@H](c3ccccc3)N2[C@@H](c2ccc(O)cc2)[C@]12C(=O)Nc1ccc(C#CC3=CCCCC3)cc12", 2),
    ("CCOC(=O)C1=CC[C@@H](c2ccccc2)N(S(=O)(=O)c2ccc(C)cc2)[C@H]1C#N", 1),
    ("C[N+](C)(C)CCCCCCNC(=O)[C@@H]1C[C@@H]2C(=O)N[C@@H](Cc3ccccc3)C(=O)N2[C@@H]1c1ccc(O)cc1", 1),
    ("CCOC(=O)C1=CC[C@@H](c2ccc(F)cc2)N(S(=O)(=O)c2ccc(C)cc2)[C@H]1c1ccc([N+](=O)[O-])cc1", 1),
    ("NC(=O)N1C(=O)C2C(C1=O)C1C=C(CCCO)C2C(c2ccc(CN3CCCC3)cc2)N1Cc1cccc(OC(F)(F)F)c1 (stereo not given)", 0),
    ("CCCCC(O)C1C=CC2C(=O)NC(=O)C2N1Nc1ccc(Cl)cc1Cl (stereo not given)", 0),
    ("CC(c1ccccc1)C(O)C1C=CC2C(=O)N(c3ccccc3)C(=O)C2N1Nc1ccc(C#N)cc1 (stereo not given)", 0),
    ("CCCCN1CC=CC23O[C@@H]4C=CCOC(=O)[C@@H]4[C@H]2C(=O)N(C(CO)C(C)C)[C@@H]3C1=O (stereo not given in full)", 1),
    ("CCCCCCCCCCC(O)C1C=CC2C(=O)N(C)C(=O)C2N1N1CCCCC1 (stereo not given)", 2),
    ("O=C1C2C=CC(C(O)c3cccc(O)c3)N(Nc3ccccc3F)C2C(=O)N1c1ccccc1 (stereo not given)", 0),
]

###

test: COS7 lysate on small-molecule microarray, probe aHis, 635 nm (AID 1123); settings: COS7 cell lysate, fluorescence, higher = more signal;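 also: z-score combines 667nm fluorescence intensity with signal-to-noise per printed compound spot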
Experimental Readout: composite z-score

# Compound, Experimental Readout, Test Value
measured = [
    ("CN(C)CCCC[C@@H]1NC(=O)[C@@H]2C[C@H](C(=O)NCc3ccc(F)cc3)[C@H](c3ccc(O)cc3)N2C1=O", "composite z-score", 0.901),
    ("COCCOC(=O)N1C(=O)[C@@]2(c3cc(C#CCNC(N)=O)ccc31)[C@H](C(=O)NC[C@H](O)c1ccccc1)[C@H]1C(=O)O[C@H](c3ccccc3)[C@H](c3ccccc3)N1[C@@H]2c1ccc(OCCO)cc1", "composite z-score", 0.245),
    ("C=CCNC(=O)[C@@H]1[C@H]2C(=O)O[C@H](c3ccccc3)[C@H](c3ccccc3)N2[C@H](c2ccc(O)cc2)[C@@]12C(=O)Nc1ccc(C#CC3(O)CCCCCC3)cc12", "composite z-score", 1.04),
    ("CC(C)=CCN(C(=O)C#Cc1ccccc1)[C@H](CO)c1ccccc1", "composite z-score", 0.506),
    ("COCCOC(=O)N1C(=O)[C@@]2(c3cc(C#CCCO)ccc31)[C@H](c1ccccc1OCCO)N1[C@H](c3ccccc3)[C@H](c3ccccc3)OC(=O)[C@H]1[C@@H]2C(=O)N1CCc2cc(OC)c(OC)cc2C1", "composite z-score", 1.85),
    ("C=CC(CO)NC(=O)OCC1c2ccccc2-c2ccccc21 (configuration not stated)", "composite z-score", 0.121),
    ("COc1ccc(C#Cc2ccc3c(c2)[C@]2(C(=O)N3)[C@H](c3ccc(OCCO)cc3)N3[C@H](c4ccccc4)[C@H](c4ccccc4)OC(=O)[C@H]3[C@@H]2C(=O)O)cc1", "composite z-score", 3.18),
]
